Recorded TGI, one value per entry.
# Tested on: SNB-19 CNS
# protocol: NCI tumour cell line growth inhibition, 48 h

> print(dat)
                                   compound  measurement.target  readout  reported.value
1  O=C(N/C(=C\c1ccccc1)C1Nc2ccccc2C(=O)O1)c1ccccc1 (stereo unspecified)          SNB-19 CNS      TGI        > 100 µM

Return reported TGI; argument: `O=[N+]([O-])c1ccc(-c2cn(-c3ccc(Cl)cc3)cn2)cc1`
> 100 µM

Which TGI value belongs to CC(=O)OCC1OC(Sc2ccccn2)C=CC1OC(C)=O (stereo unspecified) ?
> 100 µM

Would you kindly share the measured TGI for CC([O-])C(=O)[O-].NCC1CCC1CN.[Pt+4] (stereo unspecified) ?
> 10 µM

Given the compound COc1cc2c(cc1O)C(C)Cc1cc3c(cc1N(C)CC2)OCO3 (stereo unspecified) , what is its reported TGI?
> 87.4 µM

Give the measured TGI of CN1CCCCC1CCN1c2ccccc2Sc2ccc(S(C)=O)cc21 (stereo unspecified) .
> 100 µM
